These data points were gathered from the supplement of paper PMC5998384.

Would you mind telling me the reported melting temperature of each entry?
system: HeLa Kyoto; experiment: melting temperature (median over replicates), in situ; higher = more thermally stable; conditions: cell cycle stage: mitosis
Give bare numbers, in °C.

MALLVRVLRNQTSISQWVPVCSRLIPVSPTQGQGDRALSRTSQWPQMSQSRACGGSEQIPGIDIQLNRKYHTTRKLSTTKDSPQPVEEKVGAFTKIIEAMGFTGPLKYSKWKIKIAALRMYTSCVEKTDFEEFFLRCQMPDTFNSWFLITLLHVWMCLVRMKQEGRSGKYMCRIIVHFMWEDVQQRGRVMGVNPYILKKNMILMTNHFYAAILGYDEGILSDDHGLAAALWRTFFNRKCEDPRHLELLVEYVRKQIQYLDSMNGEDLLLTGEVSWRPLVEKNPQSILKPHSPTYNDEGL [UQCC1] :: 54.1

q: Query: melting temperature; subject: MSEKSVEAAAELSAKDLKEKKEKVEEKASRKERKKEVVEEEENGAEEEEEETAEDGEEEDEGEEEDEEEEEEDDEGPALKRAAEEEDEADPKRQKTENGASA [PTMS]
a: 51.9

###

tested on: HeLa Kyoto; experiment: solubility in G1/S (NP-40 vs SDS abundance) (log2 ratio); higher = more soluble; conditions: cell cycle stage: G1/S
Would you mind telling me the reported solubility in G1/S (log2) of each entry?

MGTRDDEYDYLFKVVLIGDSGVGKSNLLSRFTRNEFNLESKSTIGVEFATRSIQVDGKTIKAQIWDTAGQERYRAITSAYYRGAVGALLVYDIAKHLTYENVERWLKELRDHADSNIVIMLVGNKSDLRHLRAVPTDEARAFAEKNNLSFIETSALDSTNVEEAFKNILTEIYRIVSQKQIADRAAHDESPGNNVVDISVPPTTDGQKPNKLQCCQNL [RAB11B] :: 0.136
MWRSCLRLRDGGRRLLNRPAGGPSASMSPGPTIPSPARAYAPPTERKRFYQNVSITQGEGGFEINLDHRKLKTPQAKLFTVPSEALAIAVATEWDSQQDTIKYYTMHLTTLCNTSLDNPTQRNKDQLIRAAVKFLDTDTICYRVEEPETLVELQRNEWDPIIEWAEKRYGVEISSSTSIMGPSIPAKTREVLVSHLASYNTWALQGIEFVAAQLKSMVLTLGLIDLRLTVEQAVLLSRLEEEYQIQKWGNIEWAHDYELQELRARTAAGTLFIHLCSESTTVKHKLLKE [ATPAF2] :: 0.104

Now for the sequence whose solubility in G1/S (log2) we want.
q: # value lookup — system HeLa Kyoto, readout solubility in G1/S (log2), item MVSDEDELNLLVIVVDANPIWWGKQALKESQFTLSKCIDAVMVLGNSHLFMNRSNKLAVIASHIQESRFLYPGKNGRLGDFFGDPGNPPEFNPSGSKDGKYELLTSANEVIVEEIKDLMTKSDIKGQHTETLLAGSLAKALCYIHRMNKEVKDNQEMKSRILVIKAAEDSALQYMNFMNVIFAAQKQNILIDACVLDSDSGLLQQACDITGGLYLKVPQMPSLLQYLLWVFLPDQDQRSQLILPPPVHVDYRAACFCHRNLIEIGYVCSVCLSIFCNFSPICTTCETAFKISLPPVLKAKKKKLKVSA [GTF2H3]
a: -0.126

###

test system: HeLa Kyoto; assay: solubility change mitosis vs G1/S (difference of NP-40 vs SDS log2 ratios) (log2 ratio difference); higher = more soluble in mitosis
Would you mind telling me the reported solubility change mitosis (log2) of each entry?
Numbers only.

MSLFGTTSGFGTSGTSMFGSATTDNHNPMKDIEVTSSPDDSIGCLSFSPPTLPGNFLIAGSWANDVRCWEVQDSGQTIPKAQQMHTGPVLDVCWSDDGSKVFTASCDKTAKMWDLSSNQAIQIAQHDAPVKTIHWIKAPNYSCVMTGSWDKTLKFWDTRSSNPMMVLQLPERCYCADVIYPMAVVATAERGLIVYQLENQPSEFRRIESPLKHQHRCVAIFKDKQNKPTGFALGSIEGRVAIHYINPPNPAKDNFTFKCHRSNGTNTSAPQDIYAVNGIAFHPVHGTLATVGSDGRFSFWDKDARTKLKTSEQLDQPISACCFNHNGNIFAYASSYDWSKGHEFYNPQKKNYIFLRNAAEELKPRNKK [RAE1] :: 0.128
MTLESIMACCLSEEAKEARRINDEIERQLRRDKRDARRELKLLLLGTGESGKSTFIKQMRIIHGSGYSDEDKRGFTKLVYQNIFTAMQAMIRAMDTLKIPYKYEHNKAHAQLVREVDVEKVSAFENPYVDAIKSLWNDPGIQECYDRRREYQLSDSTKYYLNDLDRVADPAYLPTQQDVLRVRVPTTGIIEYPFDLQSVIFRMVDVGGQRSERRKWIHCFENVTSIMFLVALSEYDQVLVESDNENRMEESKALFRTIITYPWFQNSSVILFLNKKDLLEEKIMYSHLVDYFPEYDGPQRDAQAAREFILKMFVDLNPDSDKIIYSHFTCATDTENIRFVFAAVKDTILQLNLKEYNLV [GNAQ] :: -0.0689
MAATAREDGASGQERGQRGCEHYDRGCLLKAPCCDKLYTCRLCHDNNEDHQLDRFKVKEVQCINCEKIQHAQQTCEECSTLFGEYYCDICHLFDKDKKQYHCENCGICRIGPKEDFFHCLKCNLCLAMNLQGRHKCIENVSRQNCPICLEDIHTSRVVAHVLPCGHLLHRTCYEEMLKEGYRCPLCMHSALDMTRYWRQLDDEVAQTPMPSEYQNMTVDILCNDCNGRSTVQFHILGMKCKICESYNTAQAGGRRISLDQQ [RCHY1] :: -0.374
MAASVEQREGTIQVQGQALFFREALPGSGQARFSVLLLHGIRFSSETWQNLGTLHRLAQAGYRAVAIDLPGLGHSKEAAAPAPIGELAPGSFLAAVVDALELGPPVVISPSLSGMYSLPFLTAPGSQLPGFVPVAPICTDKINAANYASVKTPALIVYGDQDPMGQTSFEHLKQLPNHRVLIMKGAGHPCYLDKPEEWHTGLLDFLQGLQ [ABHD14B] :: -0.165

q: Query: solubility change mitosis (log2); subject: MPYQYPALTPEQKKELSDIAHRIVAPGKGILAADESTGSIAKRLQSIGTENTEENRRFYRQLLLTADDRVNPCIGGVILFHETLYQKADDGRPFPQVIKSKGGVVGIKVDKGVVPLAGTNGETTTQGLDGLSERCAQYKKDGADFAKWRCVLKIGEHTPSALAIMENANVLARYASICQQNGIVPIVEPEILPDGDHDLKRCQYVTEKVLAAVYKALSDHHIYLEGTLLKPNMVTPGHACTQKFSHEEIAMATVTALRRTVPPAVTGITFLSGGQSEEEASINLNAINKCPLLKPWALTFSYGRALQASALKAWGGKKENLKAAQEEYVKRALANSLACQGKYTPSGQAGAAASESLFVSNHAY [ALDOA]
a: -0.0218
